Data provenance: the supplement of paper PMC12338614

B1: library; numbered along this chain (parent)
chain: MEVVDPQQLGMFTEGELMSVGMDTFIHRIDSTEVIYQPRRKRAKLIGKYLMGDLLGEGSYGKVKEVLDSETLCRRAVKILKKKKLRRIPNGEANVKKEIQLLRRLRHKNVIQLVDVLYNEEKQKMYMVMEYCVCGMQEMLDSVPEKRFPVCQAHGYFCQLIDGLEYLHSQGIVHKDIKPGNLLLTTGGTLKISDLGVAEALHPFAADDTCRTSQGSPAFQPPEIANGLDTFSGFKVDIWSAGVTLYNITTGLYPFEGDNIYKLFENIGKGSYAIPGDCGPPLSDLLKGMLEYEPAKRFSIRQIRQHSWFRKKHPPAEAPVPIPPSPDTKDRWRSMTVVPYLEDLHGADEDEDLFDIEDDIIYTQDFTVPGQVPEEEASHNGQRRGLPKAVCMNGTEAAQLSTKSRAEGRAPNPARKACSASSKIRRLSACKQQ

Variants of: B1
method.description: STK11 functional score (HeLa growth suppression), rescaled enrichment; synonymous median = 1, nonsense median = 0 (normalised score)
experimental.parameters: with HeLa; variant type: missense
// returns label 0 unless STK11 functional score is strictly below 1, in which case label 1

- mutant: "A198R"
  category: "label 1"
- mutant: "R39K"
  category: "label 1"
- mutant: "L182D"
  category: "label 1"
- mutant: "K269L"
  category: "label 0"
- mutant: "F354K"
  category: "label 0"
- mutant: "C132H"
  category: "label 0"
- mutant: "I303F"
  category: "label 1"
- mutant: "S142M"
  category: "label 1"
- mutant: "V66R"
  category: "label 1"
- mutant: "I111V"
  category: "label 1"
- mutant: "P179D"
  category: "label 1"
- mutant: "K78G"
  category: "label 1"
- mutant: "Y246M"
  category: "label 0"
- mutant: "Y36N"
  category: "label 0"
- mutant: "T402E"
  category: "label 0"
- mutant: "L353A"
  category: "label 0"
- mutant: "L105D"
  category: "label 1"
- mutant: "E376L"
  category: "label 0"
- mutant: "P6W"
  category: "label 1"
- mutant: "Q137N"
  category: "label 0"
- mutant: "L228M"
  category: "label 1"
